Reference for the values: PubChem BioAssay (NCI)

test system: LOX IMVI melanoma; assay: NCI-60 one-dose screen, 48 h (100 = growth as untreated, 0 = no growth, -100 = all killed); details: 10 µM unless noted
About 83,000 compounds went through this panel and 20% of them were active in at least one assay; those are over-represented in the sample as a whole. Active and inactive are the calls of the source. Rule for the calls: active = growth percent below 10; inactive = the rest.
endpointName: growth

As a guide, the following entries are already answered.
>>> df
                                        smi     reportedvalue
0  O=C1/C(=C/c2ccc(Cl)cc2)CCC/C1=C\c1ccc(Cl)cc1   -67.7% (active)
1   COc1ccc2nc3cc(Cl)ccc3c(NCCCNC(C)=O)c2c1  15.9% (inactive)

Given the compound `COc1ccc(/C=C(/C(=O)N2CCN(c3ccc(C)cc3)CC2)c2cc(OC)c(OC)c(OC)c2)cc1N` , what is its reported growth?
22.2% (inactive)
